Origin of values: paper PMC9917213

molecular target: UniProt P34972
endpoint: IC50 (µM)

{"molecule": "Cc1c(Br)cn(CCCc2cn(CCCCCn3c(=O)c(C(=O)NC4CCC(C)CC4)cc4cccnc43)nn2)c(=O)c1NC(=O)C1CCCCCC1 (stereo not shown) [JR22a]", "measured_number": 0.095}

###

biological target: hCB2R (Homo sapiens, UniProt P34972); construct: host or cells: CHO-K1 (HitHunter cAMP cell line); assay: HitHunter cAMP assay: inhibition of forskolin-stimulated cAMP; type: cell-based; details: read-out: Emax ± SEM
Sequence (P34972 whole entry): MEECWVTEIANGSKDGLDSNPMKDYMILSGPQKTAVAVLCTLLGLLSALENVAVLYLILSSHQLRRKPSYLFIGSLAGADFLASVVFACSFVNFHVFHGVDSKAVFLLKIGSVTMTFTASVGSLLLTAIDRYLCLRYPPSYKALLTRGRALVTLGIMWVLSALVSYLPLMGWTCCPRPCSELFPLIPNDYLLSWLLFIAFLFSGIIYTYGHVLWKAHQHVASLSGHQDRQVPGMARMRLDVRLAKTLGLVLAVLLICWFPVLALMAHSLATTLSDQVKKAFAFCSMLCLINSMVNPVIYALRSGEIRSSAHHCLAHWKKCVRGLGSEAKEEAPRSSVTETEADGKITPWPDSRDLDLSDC

{"compound": "Cc1c(Br)cn(CCCc2cn(CCCCCn3c(=O)c(C(=O)NC4CCC(C)CC4)cc4cccnc43)nn2)c(=O)c1NC(=O)C1CCCCCC1 (stereo not shown) [JR22a]", "Emax": "53%"}
{"compound": "Cc1c(Br)cn(CCCc2cn(CCCCC(=O)NC3CCC(NC(=O)c4cc5cccnc5n(Cc5ccc(F)cc5)c4=O)CC3)nn2)c(=O)c1NC(=O)C1CCCCCC1 (stereo not shown) [JR14a]", "Emax": "29%"}
{"compound": "Cc1c(Br)cn(CCCCCCCn2c(=O)c(C(=O)NC3CCC(C)CC3)cc3cccnc32)c(=O)c1NC(=O)C1CCCCCC1 (stereo not shown) [JR64a]", "Emax": "19%"}
{"compound": "Cc1c(Br)cn(Cc2ccc(F)cc2)c(=O)c1NC(=O)C1CCCCCC1 [EC21a, reference compound]", "Emax": "-14%"}

###

target: hCB2R (Homo sapiens, UniProt P34972); construct: host or cells: CHO-K1 (HitHunter cAMP cell line); experiment: HitHunter cAMP assay: inhibition of forskolin-stimulated cAMP; format: cell-based

{"molecule": "Cc1c(Br)cn(Cc2ccc(F)cc2)c(=O)c1NC(=O)C1CCCCCC1 [EC21a, reference compound]", "EC50": "30 nM"}

###

molecular target: hCB2R (Homo sapiens); construct: host or cells: CHO-K1 (HitHunter cAMP cell line); assay: HitHunter cAMP assay: inhibition of forskolin-stimulated cAMP; type: cell-based; conditions: EC50 (in brackets after pEC50), compound alone; CHO hCB2R, 10 μM FSK, 90 min
pEC50: −log10 of the molar value.
endpoint: pEC50

{"compound": "Cc1c(Br)cn(CCCc2cn(CCCCCn3c(=O)c(C(=O)NC4CCC(C)CC4)cc4cccnc43)nn2)c(=O)c1NC(=O)C1CCCCCC1 (stereo not shown) [JR22a]", "measured_number": 6.16}

###

biological target: hCB2R (Homo sapiens)
endpoint: Ki (nM)

{"molecule": "Cc1c(Br)cn(CCCc2cn(CCCCCn3c(=O)c(C(=O)NC4CCC(C)CC4)cc4cccnc43)nn2)c(=O)c1NC(=O)C1CCCCCC1 (stereo not shown) [JR22a]", "measured_number": 95}
